- Method: In vitro cytotoxicity assay in HepG2 cells, CCK-8 method
- Condition Description: human
Recorded CC50 at 48 h, one value per entry.

>  <Smiles Text>
NS(=O)(=O)c1cc(NC(=O)Cc2ccccc2Cl)cc2nn(CC(F)F)cc12

>  <CC50 at 48 h>
> 200 µM

$$$$
>  <Smiles Text>
COc1ccc(Cn2ncc3c(S(N)(=O)=O)cc(NC(=O)Cc4ccccc4Cl)cc32)cc1

>  <CC50 at 48 h>
> 200 µM

$$$$
>  <Smiles Text>
NS(=O)(=O)c1cc(NC(=O)Cc2ccccc2Cl)cc2cn(CC3CC3)nc12

>  <CC50 at 48 h>
> 200 µM

$$$$
>  <Smiles Text>
NS(=O)(=O)c1cc(NC(=O)Cc2ccccc2Cl)cc2nn(Cc3ccc(F)cc3)cc12

>  <CC50 at 48 h>
> 200 µM

$$$$
>  <Smiles Text>
N#Cc1ccc(Cn2cc3c(S(N)(=O)=O)cc(NC(=O)Cc4ccccc4Cl)cc3n2)cc1

>  <CC50 at 48 h>
> 200 µM

$$$$
>  <Smiles Text>
NS(=O)(=O)c1cc(NC(=O)Cc2ccccc2Cl)cc2n[nH]cc12

>  <CC50 at 48 h>
> 200 µM

$$$$
>  <Smiles Text>
CCCn1cc2c(S(N)(=O)=O)cc(NC(=O)Cc3ccccc3Cl)cc2n1

>  <CC50 at 48 h>
> 200 µM

$$$$
>  <Smiles Text>
NS(=O)(=O)c1cc(NC(=O)Cc2ccccc2Cl)cc2nn(C(F)F)cc12

>  <CC50 at 48 h>
> 200 µM

$$$$
